Test: Metabolic stability in liver microsomes (NADPH)
Settings: mouse, liver microsomes
OUTCOME MEASURE: microsomal CLint at 1 µM (µL/min/mg)
Express your answer in µL/min/mg, writing the number without its unit.

*Q* Any idea what its microsomal CLint at 1 µM is? The compound is C=C1CN2[C@H](COC(=O)N3CCC(Cc4cn([C@H](C(=O)N5C[C@H](O)C[C@H]5C(=O)N[C@@H](C)c5ccc(-c6scnc6C)cc5)C(C)C)nn4)CC3)CC[C@@]2(COc2nc(N3CCC[C@@](C)(O)C3)c3cnc(-c4cc(O)cc5ccc(F)c(CC)c45)c(F)c3n2)C1 [Compound 141]
*A* 12.1

====

Test: in vitro
Settings: human, microsomes
Values of microsomal CLint strictly less than 20 µL/min/mg map to satisfied, and values of at least 20 µL/min/mg map to not satisfied.

CCc1c(F)ccc2cc(O)cc(-c3ncc4c(N5CCC[C@@](C)(O)C5)nc(OCC5(CN6CCC(N7CCN(c8cc([C@H](C(=O)N9C[C@H](O)C[C@H]9C(=O)N[C@@H](C)c9ccc(-c%10scnc%10C)cc9)C(C)C)on8)CC7)CC6)CC5)nc4c3F)c12; not satisfied
CCc1c(F)ccc2cc(O)cc(-c3ncc4c(N5CCC[C@@](C)(O)C5)nc(OCC5(CN6CCC7(CC6)CN(c6cc([C@H](C(=O)N8C[C@H](O)C[C@H]8C(=O)N[C@@H](C)c8ccc(-c9scnc9C)cc8)C(C)C)on6)C7)CC5)nc4c3F)c12; satisfied
CCc1c(F)ccc2cc(O)cc(-c3ncc4c(N5CCC[C@@](C)(O)C5)nc(OCC5(CN6CCC7(CC6)CN(c6ccc(-c8cn([C@H](C(=O)N9C[C@H](O)C[C@H]9C(=O)N[C@@H](C)c9ccc(-c%10scnc%10C)cc9)C(C)C)nn8)cn6)C7)CC5)nc4c3F)c12; not satisfied
CCc1c(F)ccc2cc(O)cc(-c3ncc4c(N5CCC[C@@](C)(O)C5)nc(OCC5(CN6CCC7(CC6)CC(c6cn([C@H](C(=O)N8C[C@H](O)C[C@H]8C(=O)N[C@@H](C)c8ccc(-c9scnc9C)cc8)C(C)C)nn6)C7)CC5)nc4c3F)c12; satisfied

*Q* Lab note: confirm whether the reported microsomal CLint for this compound is below 20 µL/min/mg, equality not counting. compound: CCc1c(F)ccc2cc(O)cc(-c3ncc4c(N5CCC[C@@](C)(O)C5)nc(OC[C@]56CCCN5[C@@H](COC(=O)N5CCC7(CC5)CC(C(=O)N[C@H](C(=O)N5C[C@H](O)C[C@H]5C(=O)N[C@@H](C)c5ccc(-c8scnc8C)cc5)C(C)(C)C)C7)CC6)nc4c3F)c12
*A* satisfied
